Recorded values, source patent US20190134153A1.

Examples of sequences with documented % activity follow.
Target: MLK1(h) (Homo sapiens, UniProt P80192)
Sequence (P80192 whole entry): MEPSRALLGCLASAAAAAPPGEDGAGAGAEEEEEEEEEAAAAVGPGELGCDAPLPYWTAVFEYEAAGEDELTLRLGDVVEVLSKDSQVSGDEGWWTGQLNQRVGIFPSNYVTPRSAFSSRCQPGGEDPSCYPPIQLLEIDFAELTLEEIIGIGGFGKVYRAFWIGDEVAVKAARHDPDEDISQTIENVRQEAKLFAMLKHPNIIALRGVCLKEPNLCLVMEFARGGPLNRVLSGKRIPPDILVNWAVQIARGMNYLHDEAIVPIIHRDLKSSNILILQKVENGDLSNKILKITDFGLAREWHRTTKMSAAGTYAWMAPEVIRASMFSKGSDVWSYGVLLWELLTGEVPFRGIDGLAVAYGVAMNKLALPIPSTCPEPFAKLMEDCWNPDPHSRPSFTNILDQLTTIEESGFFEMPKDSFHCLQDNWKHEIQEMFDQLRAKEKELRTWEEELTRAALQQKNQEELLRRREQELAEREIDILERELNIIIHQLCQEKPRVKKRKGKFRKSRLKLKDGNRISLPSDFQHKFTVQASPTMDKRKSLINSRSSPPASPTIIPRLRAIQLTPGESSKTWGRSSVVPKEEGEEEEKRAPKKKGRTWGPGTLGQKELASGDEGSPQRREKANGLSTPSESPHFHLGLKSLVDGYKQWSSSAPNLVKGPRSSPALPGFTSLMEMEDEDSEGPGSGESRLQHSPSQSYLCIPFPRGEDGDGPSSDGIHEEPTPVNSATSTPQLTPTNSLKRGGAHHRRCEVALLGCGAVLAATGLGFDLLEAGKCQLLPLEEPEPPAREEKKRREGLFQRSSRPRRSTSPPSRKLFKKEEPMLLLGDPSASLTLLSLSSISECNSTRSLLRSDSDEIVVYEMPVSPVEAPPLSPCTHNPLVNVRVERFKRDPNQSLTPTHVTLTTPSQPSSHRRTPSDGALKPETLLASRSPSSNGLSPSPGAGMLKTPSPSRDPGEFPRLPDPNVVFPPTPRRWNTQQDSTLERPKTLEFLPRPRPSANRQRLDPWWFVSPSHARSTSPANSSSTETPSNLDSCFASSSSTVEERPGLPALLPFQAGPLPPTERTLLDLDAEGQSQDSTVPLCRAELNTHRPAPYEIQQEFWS
Assay: Kinase Profiling Assay
Format: biochemical
Conditions: 100 μM
Give the number; % is assumed, so skip it.

Solved cases below.
>>> value_observed("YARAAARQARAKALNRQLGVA [MMI-0200]")
84
>>> value_observed("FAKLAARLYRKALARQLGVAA [MMI-0300]")
40
>>> value_observed("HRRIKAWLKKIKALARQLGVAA [MMI-0500]")
43

Looking up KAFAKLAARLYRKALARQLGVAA [MMI-0400] , I found its % activity recorded as 33

* * *

Molecular target: ULK2(h) (Homo sapiens)
Sequence (Q8IYT8 1-1036): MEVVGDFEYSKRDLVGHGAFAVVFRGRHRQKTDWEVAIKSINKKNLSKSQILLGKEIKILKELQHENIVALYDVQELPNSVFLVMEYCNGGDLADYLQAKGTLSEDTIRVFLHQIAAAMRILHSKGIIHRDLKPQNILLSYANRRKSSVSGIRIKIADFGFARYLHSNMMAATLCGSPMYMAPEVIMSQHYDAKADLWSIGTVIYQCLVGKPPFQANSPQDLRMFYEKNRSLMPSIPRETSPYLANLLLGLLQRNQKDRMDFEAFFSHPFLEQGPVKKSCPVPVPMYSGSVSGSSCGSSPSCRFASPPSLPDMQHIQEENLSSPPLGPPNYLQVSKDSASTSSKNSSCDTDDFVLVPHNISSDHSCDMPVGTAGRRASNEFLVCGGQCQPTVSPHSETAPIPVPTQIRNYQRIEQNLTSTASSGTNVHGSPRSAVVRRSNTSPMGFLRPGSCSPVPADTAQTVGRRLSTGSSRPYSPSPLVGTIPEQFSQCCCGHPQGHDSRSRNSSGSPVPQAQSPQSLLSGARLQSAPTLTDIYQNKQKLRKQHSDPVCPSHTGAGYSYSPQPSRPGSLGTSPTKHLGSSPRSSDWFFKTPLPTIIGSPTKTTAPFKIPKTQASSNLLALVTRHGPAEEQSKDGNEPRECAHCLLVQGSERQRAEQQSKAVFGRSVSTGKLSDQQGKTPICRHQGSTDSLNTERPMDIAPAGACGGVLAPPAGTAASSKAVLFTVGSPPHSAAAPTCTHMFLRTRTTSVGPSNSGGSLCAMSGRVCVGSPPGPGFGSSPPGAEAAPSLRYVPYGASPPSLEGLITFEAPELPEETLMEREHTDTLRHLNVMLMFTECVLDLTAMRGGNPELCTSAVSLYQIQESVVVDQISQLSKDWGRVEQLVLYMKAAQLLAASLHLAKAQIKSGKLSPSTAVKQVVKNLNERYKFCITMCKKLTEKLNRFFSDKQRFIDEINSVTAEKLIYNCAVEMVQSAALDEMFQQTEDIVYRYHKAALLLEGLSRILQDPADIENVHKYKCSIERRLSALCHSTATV
Assay: Kinase Profiling Assay
Type: biochemical
Details: 100 μM
MEASURED QUANTITY: % activity (%)
Report only the number, with the unit % understood.

// known answers, use as guide
>>> value_observed("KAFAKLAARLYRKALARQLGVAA [MMI-0400]")
131
>>> value_observed("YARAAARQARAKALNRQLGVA [MMI-0200]")
132
>>> value_observed("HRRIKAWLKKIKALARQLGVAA [MMI-0500]")
124

Input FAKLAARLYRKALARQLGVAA [MMI-0300] . Output % activity: 122

* * *

# % activity per record follows
Target: Mer(h) (Homo sapiens)
Sequence (Q12866 21-999): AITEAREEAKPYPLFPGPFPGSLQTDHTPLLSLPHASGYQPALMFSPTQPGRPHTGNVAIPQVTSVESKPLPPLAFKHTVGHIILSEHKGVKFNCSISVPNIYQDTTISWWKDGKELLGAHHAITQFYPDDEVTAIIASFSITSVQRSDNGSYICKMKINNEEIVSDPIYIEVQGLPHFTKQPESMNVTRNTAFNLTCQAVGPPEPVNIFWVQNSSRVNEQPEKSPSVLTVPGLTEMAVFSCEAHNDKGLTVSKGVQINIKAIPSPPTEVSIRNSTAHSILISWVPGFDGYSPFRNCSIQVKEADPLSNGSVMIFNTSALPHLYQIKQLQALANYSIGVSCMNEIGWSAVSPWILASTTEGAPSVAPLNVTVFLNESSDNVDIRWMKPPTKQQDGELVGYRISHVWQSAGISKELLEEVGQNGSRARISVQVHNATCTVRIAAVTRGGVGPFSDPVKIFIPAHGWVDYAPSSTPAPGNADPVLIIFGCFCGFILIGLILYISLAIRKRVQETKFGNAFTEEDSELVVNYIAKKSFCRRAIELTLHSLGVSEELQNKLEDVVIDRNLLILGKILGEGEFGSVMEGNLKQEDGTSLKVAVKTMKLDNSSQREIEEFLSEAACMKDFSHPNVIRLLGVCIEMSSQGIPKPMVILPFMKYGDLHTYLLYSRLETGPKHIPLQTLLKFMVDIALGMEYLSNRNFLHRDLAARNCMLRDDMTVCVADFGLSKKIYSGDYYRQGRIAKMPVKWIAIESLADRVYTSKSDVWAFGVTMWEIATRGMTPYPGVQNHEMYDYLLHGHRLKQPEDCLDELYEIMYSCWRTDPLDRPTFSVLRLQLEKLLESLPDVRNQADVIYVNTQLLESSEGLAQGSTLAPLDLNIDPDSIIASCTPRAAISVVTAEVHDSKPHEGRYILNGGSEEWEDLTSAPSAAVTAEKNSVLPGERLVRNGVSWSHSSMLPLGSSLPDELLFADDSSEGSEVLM
Experiment: Kinase Profiling Assay
Type: biochemical
Conditions: 100 μM
Report the value in % with no unit label.

These recorded examples may help you get a feel for the data.
>>> value_observed("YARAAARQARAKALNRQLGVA [MMI-0200]")
90
>>> value_observed("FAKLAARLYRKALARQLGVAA [MMI-0300]")
52
>>> value_observed("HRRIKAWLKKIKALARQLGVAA [MMI-0500]")
17

The reported value for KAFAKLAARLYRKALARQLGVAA [MMI-0400] in terms of % activity is 50

* * *

Target: EphA5(h) (Homo sapiens, UniProt P54756)
Sequence (P54756 25-1037): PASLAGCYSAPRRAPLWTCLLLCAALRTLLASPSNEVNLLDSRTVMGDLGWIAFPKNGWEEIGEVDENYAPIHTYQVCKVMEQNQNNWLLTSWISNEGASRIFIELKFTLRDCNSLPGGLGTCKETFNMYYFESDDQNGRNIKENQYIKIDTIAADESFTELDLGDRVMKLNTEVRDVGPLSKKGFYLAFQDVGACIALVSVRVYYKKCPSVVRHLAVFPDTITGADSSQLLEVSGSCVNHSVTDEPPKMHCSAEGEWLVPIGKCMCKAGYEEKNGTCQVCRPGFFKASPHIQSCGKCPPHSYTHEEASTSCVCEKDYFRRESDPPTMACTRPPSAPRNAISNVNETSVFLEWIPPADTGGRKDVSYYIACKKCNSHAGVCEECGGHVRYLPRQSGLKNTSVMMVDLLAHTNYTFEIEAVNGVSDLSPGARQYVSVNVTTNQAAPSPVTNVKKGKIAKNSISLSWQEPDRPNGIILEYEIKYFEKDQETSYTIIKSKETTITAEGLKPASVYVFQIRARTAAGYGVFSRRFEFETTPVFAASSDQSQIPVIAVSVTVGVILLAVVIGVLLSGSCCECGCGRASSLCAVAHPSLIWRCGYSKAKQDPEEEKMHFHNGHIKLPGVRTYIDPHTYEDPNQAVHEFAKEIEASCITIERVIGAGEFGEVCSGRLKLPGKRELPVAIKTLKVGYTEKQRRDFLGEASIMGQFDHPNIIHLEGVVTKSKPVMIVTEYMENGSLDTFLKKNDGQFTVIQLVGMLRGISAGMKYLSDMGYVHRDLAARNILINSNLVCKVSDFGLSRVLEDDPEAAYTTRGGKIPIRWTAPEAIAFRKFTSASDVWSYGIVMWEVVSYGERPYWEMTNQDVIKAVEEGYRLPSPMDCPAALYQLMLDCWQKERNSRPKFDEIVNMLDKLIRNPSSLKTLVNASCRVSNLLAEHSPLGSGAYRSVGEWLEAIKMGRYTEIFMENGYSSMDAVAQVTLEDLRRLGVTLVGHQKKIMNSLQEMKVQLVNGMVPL
Test: Kinase Profiling Assay
Format: biochemical
Details: 100 μM
MEASURED QUANTITY: % activity (%)
Only the number, expressed in %, is required.

Reference set (3 entries):
>>> value_observed("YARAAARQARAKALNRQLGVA [MMI-0200]")
123
>>> value_observed("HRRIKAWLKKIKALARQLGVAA [MMI-0500]")
42
>>> value_observed("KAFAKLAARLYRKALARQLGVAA [MMI-0400]")
24

Please look at the following sequence next.
Measured % activity of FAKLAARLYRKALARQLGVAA [MMI-0300] : 18

* * *

Target: FGFR2(h) (Homo sapiens, UniProt P21802)
Test: Kinase Profiling Assay
Format: biochemical
Details: 100 μM
MEASURED QUANTITY: % activity (%)
// return numeric value only (unit: %, not printed)

For orientation, consider the following solved cases.
>>> value_observed("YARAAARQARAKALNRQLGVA [MMI-0200]")
73
>>> value_observed("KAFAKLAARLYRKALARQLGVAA [MMI-0400]")
18
>>> value_observed("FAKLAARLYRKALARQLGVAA [MMI-0300]")
14

Consider now this further sequence.
// recorded % activity for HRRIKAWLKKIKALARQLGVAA [MMI-0500] : 12

* * *

Target: NEK2(h) (Homo sapiens)
Sequence (P51955 1-445): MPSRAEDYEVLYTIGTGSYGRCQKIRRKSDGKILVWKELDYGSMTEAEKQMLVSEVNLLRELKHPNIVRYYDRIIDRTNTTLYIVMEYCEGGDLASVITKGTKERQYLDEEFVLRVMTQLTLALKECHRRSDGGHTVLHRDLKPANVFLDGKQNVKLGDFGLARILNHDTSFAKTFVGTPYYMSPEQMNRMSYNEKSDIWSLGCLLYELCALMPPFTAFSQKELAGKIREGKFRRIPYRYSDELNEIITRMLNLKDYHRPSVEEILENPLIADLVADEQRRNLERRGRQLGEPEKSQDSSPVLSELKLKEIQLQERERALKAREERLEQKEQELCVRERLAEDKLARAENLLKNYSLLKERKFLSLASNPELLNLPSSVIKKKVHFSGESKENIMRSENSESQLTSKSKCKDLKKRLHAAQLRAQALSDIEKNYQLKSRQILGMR
Assay: Kinase Profiling Assay
Type: biochemical
Details: 100 μM
MEASURED QUANTITY: % activity (%)
# number only, unit % dropped from output

Solved entries (count: 3):
>>> value_observed("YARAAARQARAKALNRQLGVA [MMI-0200]")
97
>>> value_observed("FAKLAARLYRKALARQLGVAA [MMI-0300]")
78
>>> value_observed("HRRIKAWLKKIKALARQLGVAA [MMI-0500]")
0

Note: attention shifts to another entry.
GET /value?item= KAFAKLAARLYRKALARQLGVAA [MMI-0400] &field=% activity returns 61
